Entry source: patent US20150246947A1

- TARGET_SYSTEM: T1, human Protein S (UniProt P07225 42-676)
- T1 chain: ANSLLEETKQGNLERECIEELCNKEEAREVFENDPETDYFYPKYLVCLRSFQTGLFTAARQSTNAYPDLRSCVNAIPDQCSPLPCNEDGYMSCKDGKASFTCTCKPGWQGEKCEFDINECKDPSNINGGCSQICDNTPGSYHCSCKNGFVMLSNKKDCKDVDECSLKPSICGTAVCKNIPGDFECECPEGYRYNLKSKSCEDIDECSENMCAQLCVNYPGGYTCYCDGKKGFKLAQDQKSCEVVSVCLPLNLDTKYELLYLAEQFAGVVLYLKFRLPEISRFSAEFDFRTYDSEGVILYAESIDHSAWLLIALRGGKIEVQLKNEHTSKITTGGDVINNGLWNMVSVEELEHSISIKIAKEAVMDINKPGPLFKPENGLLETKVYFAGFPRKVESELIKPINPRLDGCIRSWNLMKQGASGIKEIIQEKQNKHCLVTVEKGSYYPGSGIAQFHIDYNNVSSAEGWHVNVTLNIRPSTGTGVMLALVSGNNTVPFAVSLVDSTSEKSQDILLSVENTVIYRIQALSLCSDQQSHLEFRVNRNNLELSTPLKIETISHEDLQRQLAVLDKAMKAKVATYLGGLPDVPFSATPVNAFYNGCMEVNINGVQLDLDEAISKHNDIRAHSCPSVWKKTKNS
- PROCEDURE_SUMMARY: LANCE competition
pIC50: −log10 of the molar value.
Examples of binders with documented pIC50 follow.
MEASURED_PROPERTY: pIC50

> print(dat)
                                  binder  reading
1  Ac-TYYVSAGWYGYNNDRYYEFY-NH2 [JBS3250]     7.64
2  Ac-EYYVSAGWYDYNNDTYYEFE-NH2 [JBS3233]     9.05
3  Ac-TGLVSAGWYDYNNDTYREFT-NH2 [JBS3194]     8.70
4  Ac-EYYVSAGWYDYNNDIYYEFE-NH2 [JBS3218]     9.05
5  Ac-TGLVSAGWYDYNFDHYYEFT-NH2 [JBS2941]     8.85
6  Ac-EYYVSAGWYDTNNDRYYEFI-NH2 [JBS3239]     8.70
7  Ac-DDEVSIGWYDYNTDEYVEFW-NH2 [JBS3295]     7.84
